Sourced from patent US20260132214A1

I'd appreciate it if you could supply EC50 values for the items below.
Measured on: T1, GPC3 expressed on the cell surface of HepG2, Huh7 and Hep3B cells (human, UniProt P51654 25-554)
T1 construct: Endogenous GPC3 of human liver tumour cell lines; also called Glypican 3 protein on the cell surface; endogenously expressed GPC3
Test description: flow cytometry, Fab titrated on Hep3B cells
Remember to follow the number with its unit.

Reference set, count: 2
P17-11F4 Fab (Fab, V domains shown, Fab format) VH: EVQLVESGGGLVQPGGSLRLSCAASGFTFKDYAMSWVRQAPGKGLEWVSALSGSGGATYYADSVKGRFTISRDNSKNTLYLQMNSLRAEDTAVYYCAKEMDFRYGWMHYYYGMDVWGQGTTVTVSS VL: QSVLTQPPSVSGAPGQRVTISCTGSSSGYDVHWYQQLPGRAPKLLIYGSNNRPSGVPDRFSGSNSGTSASLAITGLQAEDEADYYCQSYDSSLNAIFGGGTKLTVL; 0.0099 µg/mL
P17-13G2 Fab (Fab, V domains shown, Fab format) VH: EVQLVESGGGLVQPGGSLRLSCAASGFTFGEYAMSWVRQAPGKGLEWVSGMSGSGDGTYYADSVKGRFTISRDNSKNTLYLQMNSLRAEDTAVYYCAKEMDYQLGWMHYYYGMDVWGQGTTVTVSS VL: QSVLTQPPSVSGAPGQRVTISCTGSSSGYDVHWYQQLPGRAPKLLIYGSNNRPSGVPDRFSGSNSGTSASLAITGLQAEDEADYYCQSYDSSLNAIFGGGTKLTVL; 0.013 µg/mL

Lookup: Determine from records and report EC50 for P17-13F3 Fab (Fab, V domains shown, Fab format) VH: EVQLVESGGGLVQPGGSLRLSCAASGFTFEGYAMSWVRQAPGKGLEWVSNVSGSGDGTYYADSVKGRFTISRDNSKNTLYLQMNSLRAEDTAVYYCAKEYDYKTGWMHYYYGMDVWGQGTTVTVSS VL: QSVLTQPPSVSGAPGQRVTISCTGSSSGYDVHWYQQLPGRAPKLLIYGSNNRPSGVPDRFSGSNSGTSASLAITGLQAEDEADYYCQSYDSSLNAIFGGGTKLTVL
Found: 0.0148 µg/mL
